Where these numbers come from: paper PMC10748408

- Test system: MDA-MB-231 cells
- Protocol summary: Cell viability assay (MTT)
- Format: cell-based
- Condition description: Homo sapiens, 24 hours
Assay readout: IC50 (µM)
Answer with a number only, understood to be in µM.

Exam item: # lookup: IC50 of C[C@@H]1CC[C@H]2[C@@H](C)C(=O)O[C@@H]3O[C@@]4(C)CC[C@@H]1[C@]32OO4 [ART, Artemisinin]
Marked response: 5

----------
- Tested on: 4T1 cells
- Protocol summary: Cell viability assay (MTT)
- Format: cell-based, murine
- Condition description: Mus musculus, 24 hours
Assay readout: IC50 (µM)
Answer with a number only, understood to be in µM.

Exam item: # lookup: IC50 of C[C@@H]1CC[C@H]2[C@@H](C)C(=O)O[C@@H]3O[C@@]4(C)CC[C@@H]1[C@]32OO4
Marked response: 1
